- System: JAK1-dependent STAT6 phosphorylation downstream of IL-13 stimulation in BEAS-2B human bronchial epithelial cells
- ASSAY EXPLANATION: JAK1 pathway assay in BEAS-2B cells (IL-13-pSTAT6, MSD)
- Type: cell-based
- CONDITION NOTES: BEAS-2B cells, IL-13 stimulation; read-out: IL-13 p-STAT6 BEAS-2B IC50
QUANTITY MEASURED: pIC50
Convention used: pIC50 is expressed as -log10 of the molar concentration.

COMPOUND: N#CCC1(n2cc(C(N)=O)c(NC(=O)C3CC3C#N)n2)CCN(Cc2ccc(-c3ccccc3)cc2F)CC1F (stereo not shown) [Example 219]
pIC50: 7.17
--
COMPOUND: N#CCC1(n2cc(C(N)=O)c(NC(=O)C3CC3)n2)CCC(Oc2ccc(-c3ccccc3)cc2)CC1 (single isomer, unassigned) [Example 210]
pIC50: 7.12
--
COMPOUND: N#CCC1(n2cc(C(N)=O)c(NC(=O)C3CC3)n2)CCN(CC2CCC(c3ccccc3)CC2)CC1F (stereo not shown) [Example 234]
pIC50: 7.51
--
COMPOUND: N#CCC1(n2cc(C(N)=O)c(NC(=O)C3CC3)n2)CCC(Oc2ccc(-c3ccccc3)cc2)CC1 (single isomer, unassigned) [Example 211]
pIC50: 7.59
--
COMPOUND: N#CCC1(n2cc(C(N)=O)c(NC(=O)C3CC3C#N)n2)CCN(CC2CCC(c3ccccc3)CC2)CC1F (stereo not shown) [Example 231]
pIC50: 7.72
--
COMPOUND: COC(=O)Nc1nn(C2(CC#N)CCN(CC3CCC(c4ccccc4)CC3)CC2F)cc1C(N)=O (stereo not shown) [Example 236]
pIC50: 7.72

Now for another entry.
Problem: Could you tell me which pIC50 is on file for CCc1ccc(-c2ccc(CN3CCC(CC#N)(n4cc(C(N)=O)c(NC(=O)C5CC5C#N)n4)C(F)C3)cc2O)cc1 (stereo not shown) [Example 222] ?
Result: 7.28

* * *

- TARGET ENTITY: isolated recombinant JAK2 kinase domain (Homo sapiens (Human), UniProt O60674)
- Sequence (O60674 849-1124): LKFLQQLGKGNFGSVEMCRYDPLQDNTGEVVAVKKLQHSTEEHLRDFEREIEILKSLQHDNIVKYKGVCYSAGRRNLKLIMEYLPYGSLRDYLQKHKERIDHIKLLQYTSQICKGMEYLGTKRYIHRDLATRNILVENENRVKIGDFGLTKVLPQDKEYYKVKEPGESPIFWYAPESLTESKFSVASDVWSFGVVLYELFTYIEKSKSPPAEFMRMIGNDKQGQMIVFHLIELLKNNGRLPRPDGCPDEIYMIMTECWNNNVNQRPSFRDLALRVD
- ASSAY EXPLANATION: JAK2 enzyme assay (Caliper LabChip, Ki)
QUANTITY MEASURED: pKi
pKi is defined as minus the log10 of a concentration measured in mol/L.

Problem: Find the recorded pKi belonging to N#CCC1(n2cc(C(N)=O)c(NC(=O)C3CC3)n2)CCN(Cc2ccccc2C(F)(F)F)CC1 and report it.
Result: 6.93

Problem: State the recorded pKi for this entry: CCS(=O)(=O)Nc1cccc(CN2CCC(CC#N)(n3cc(C(N)=O)c(NC(=O)C4CC4)n3)CC2)c1
Result: 7.85

Problem: GET /values?readout=pKi&item= CCn1ccc(-c2ccc(CN3CCC(CC#N)(n4cc(C(N)=O)c(NC(=O)C5CC5)n4)C(F)C3)c(F)c2)n1 (stereo not shown)
Result: 9.29

Problem: Look up pKi for this compound: N#CCC1(n2cc(C(N)=O)c(NC(=O)C3CC3)n2)CCN(Cc2ccc(-n3nccn3)c(O)c2)CC1F (stereo not shown)
Result: 9.40

Problem: If you can, please state the reported pKi value of N#CCC1(n2cc(C(N)=O)c(NC(=O)C3CC3)n2)CCN(Cc2ccc(C3=CCCCC3)cc2)CC1F (stereo not shown) .
Result: 9.11

Problem: Requested field: pKi. Item: N#CCC1(n2cc(C(N)=O)c(NC(=O)C3CC3)n2)CCN(Cc2ccccc2Cl)CC1
Result: 7.37

// data source = patent US11731943B2
